System: PfHDP1 homeodomain (GST-tagged)
Test: gcPBM binding intensity (ln(normalized median fluorescence intensity)); higher = stronger DNA binding
In all, about 25,000 sequences were measured (“ln(normalized median fluorescence intensity)”: median about 6.7, highest 2% from about 10 on). The sample as a whole holds a higher share of the highest values than the screen did.
Respond with Satisfied for gcPBM binding intensity (ln) values of 10 and above, Not satisfied for values below.

Determine whether measured gcPBM binding intensity (ln) meets or exceeds 10 for TGTATGTATTAATGCGCACACAAAAAATAACAATAT [CACACA_site1848] Not satisfied

Same question for CACACGCACAGACACACACACACACGGATATAAATA [CACACA_site6301] please. Not satisfied

Would you mind doing ATATAATTAAAATGCTCACACACATAAAAAAAAATT [CACACA_site2148] as well? Not satisfied

AAGAAAAAGAATAGACGGACAACTAATATAAAATAT [XGTACX_site7905] , same question. Not satisfied

Please give the result for TATGTATGTATTAATGCGCACACAAAAAATAACAAT [CACACA_site8551] too. Not satisfied

Query CATATAAATATTTGTGCACACAATTATTAATAATTA [CACACA_site3884] next Satisfied

For AAATTACTAATGTGCACACATACTAACGTTTAAATA [CACACA_site3572] then? Satisfied

Try this sequence too: AAATAAAAATTAAAAAAATAGAAACGAATTGAATGC [TGCATGCA_negctrl_site365] Not satisfied

Would you kindly repeat that for TTAATTTTATTTTTTTGTACACATAAATATTATAAA [XGTACX_site4680] ? Not satisfied

Another sequence to check: AAAAAAAAATTAAACATACACACGTTACTATTTTTA [CACACA_site1687] Not satisfied

Thanks! And AGATATATAAATATTACACACTATATATCTATTTAT [CACACA_site6466] ? Not satisfied

Moving on to the next sequence: "TAAGATATAAAAAATGTGCACATTAAAGTATTAATT" Satisfied

How about this sequence: TAAATAATAATAAATGTGCACAGGTATTAACAAAAA [GTGCAC_site9988] Satisfied

Proceed to "TATAAATTAAAATGTGTGCACTAAATTGAAATAGAA" Satisfied

Now give it for TTTTTTTTTTTTTTTTGTACTCATATCTACTATCAT [XGTACX_site274] too. Not satisfied

Next up: TGTCCAATTTATTGTGCACACCTCAAAAGTGGGTAA [CACACA_site3826] Satisfied

Now the sequence TATTTATAGATATATACACACATATACATATTGTTT [CACACA_site7611] Not satisfied

Also AATTTAATTTTTTCGTGTACTTATATAGGAGGTTTT [XGTACX_site8310] ? Not satisfied

Next up: AAAAATTAAATAAATTTACACACTAATAATTACATA [CACACA_site8260] Not satisfied

# iterate: "ATAGAAGGCAACTTGGTGCACAAAAAAAAAAATAAT" Satisfied

---

Record form. Attribute: gcPBM binding intensity (ln). Fill in for each entry.
Test system: PfHDP1 homeodomain (GST-tagged)
Assay: gcPBM binding intensity (ln(normalized median fluorescence intensity)); higher = stronger DNA binding
The full ranking holds about 25,000 sequences; the median of “ln(normalized median fluorescence intensity)” is about 6.7, and the highest 2% start at about 10. The full list was thinned out, with the highest values kept by preference.
Give only the figure.

For the sequence shown here, "TTTTTGTTATTATGTGTGCACATATATATATATATA" , give the reported gcPBM binding intensity (ln). 10.4

Entry ATATATATAAATATATGTACATAAATATATTTGTAA [XGTACX_site6715] please 6.71

Record: TTATAAAGAAAAAATTGCTTTAAAAGAAAGATTACA [CACACA_negctrl_site960] 5.87

What about CTTGTCATTGGGCACACACACATGTATAGGTTATTA [CACACA_site3058] ? 6.49

One more sequence: CTCTTGTCATTTTGCACACACACATGTATAGGTTAT [CACACA_site3057] 11.1

Next up: TGTGTGTGTATATGTGTGCACATATAAAATAGAAGA [GTGCAC_site9714] 10.5

And for TATATCCACATTTTTAGTACTTAAAAATAAATAAAC [XGTACX_site3826] ? 6.62

Continue with AAAAAAAAAAGAAACACACACATATATATATATAAT [CACACA_site5052] 6.7

Then this sequence: AGTACATTATAGAATACACACCTATATATATATATA [CACACA_site4447] 9.29

Input CTTGTCATTTGGCACACACACATGTATAGGTTATTA [CACACA_site5656] 6.72

Follow-up entry: TGAAATTTGTTATATGCATGTAAAATATTACGACGA [TGCATGCA_site201] 6.59

What do we get for ATAAATACATATGTGTGTACACATTATATATATATA [XGTACX_site1486] ? 9.17

Same lookup for AAAAAAAAAAAATGCACACATATATTTCCATATACA [CACACA_site1471] , please. 9.96

Try this sequence too: TATGTATGTTAGTGTGCACACATAAATATTATATAT [CACACA_site9121] 11.1

Try TATCATATATAAAGAGGTACGTAAGAATAGAAAATT [XGTACX_site798] next. 7.27

How about GTTTTATTTATTTCATGTACACAAAAAAGGTTTTAA [XGTACX_site6525] ? 6.97

Similarly, "GAAAAGCAGATAAATGTGCACATATATGTTTGTATA" ? 10.8

Lookup "AATATTTTATTTTGGGTGCAAAAGAATATTATTTCA" 9.49

Likewise for TATATGTATAGAAAATGTACATATAAATATATATAT [XGTACX_site3420] ? 7.94

# iterate: ATATATGTATGTTAGACACACATATTATAATATGTT [CACACA_site116] 6.5

---

I'd be grateful if you could share measured gcPBM binding intensity (ln) for these entries.
System: PfHDP1 homeodomain (GST-tagged)
Test: gcPBM binding intensity (ln(normalized median fluorescence intensity)); higher = stronger DNA binding
Whole data set: some 25,000 sequences, median “ln(normalized median fluorescence intensity)” near 6.7, cut for the highest 2% near 10. Only a selection was taken, and the highest values are over-represented in it overall.
Provide a numeric answer; units are not to be included.

// lookup gcPBM binding intensity (ln) | system=PfHDP1 homeodomain (GST-tagged) | key= AAATTATTAAGTGATATAATATTCTATAGATGGGGA [CACACA_negctrl_site168] 6.76

Try the sequence AATTATAAATCTTGCACACAAAAAAAATAATAAAAA [CACACA_site2434] 8.67

Another sequence: TTTTTAGTTAATTAAACACACAAAAAAAAAAATAAA [CACACA_site3930] 6.4

Proceed to ATAAAAATATTATAAGCACACATATATATATATATA [CACACA_site8781] 9.54

And for AATCATAAACATTATGCACACAAAAATAAAAAAAAA [CACACA_site8289] ? 8.58

Another sequence to check: CGCGAACATACATACACACACATATATATATCTGTA [CACACA_site4277] 6.98

Same question for AAAAAAAAAAAAAAATGTACATATATATATTATAAA [XGTACX_site518] please. 6.33

Subsequent entry: ATATTTGTATAAATTGCACACTTTATTTTTTTTAAG [CACACA_site1558] 9.86

Then ATTAAAAATTCAATTGCACACGCACATATTTTAATA [CACACA_site8618] ? 9.92

Another sequence to check: AAGTTTAAAGGAATTACACAAACAAGCAAATATATA [CACACA_negctrl_site857] 6.92

Also TCAAAAAAAAAAAAAAAAAAAAAAAAAAAAAAAAAA [CACACA_negctrl_site1753] , if possible. 5.92

Also check AAAATAATCTTATGCACACCAAAAATTTATATAATC [CACACA_site1235] 10.6

// same read-out, input: ATAAATTTTTTATGAACACACAAATACACCCACTCA [CACACA_site5465] 7.07

Next sequence: TTACTTGTTTATTTTTTTTTTTTTTTTTTTTTTGTT [TGCATGCA_negctrl_site103] 5.62

Try this sequence too: ATAAAATAATCTTATGCACACCAAAAATTTATATAA [CACACA_site8332] 10.4

Try this sequence next: TTTTAAAAAAATATAATACACACCAAAAATATGCAC [CACACA_site2131] 7.15

What do you get for "AGTATAAGCATTATTGTGCACATAATTATAATTTTT" ? 11

Note, next up: ATATTTAAATTTTGCACACGCATATGAAATTAGGAC [CACACA_site1035] 10.5

Another sequence: ATTTACATTATATTGAATATGCCATATTATATTATT [CACACA_negctrl_site811] 6.59
